method-description: chemical genetic growth profiling, strain panel (AID 1159580);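 also: tested at 20 µM; growth read once vehicle control cultures reached saturation at 30 °C; 1 = growth at the plate median or of vehicle wells; lower values mean less growth of the strain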
test-parameters: S. cerevisiae deletion strains, growth OD, locus YGL078C, strain dbp3, active compounds read low
About 2,000 (36%) of roughly 5,500 compounds were called active. Another 18% or so got no clear call; they are omitted. This is one part of the list.

{"columns": ["molecule", "normalized growth"],
 "data": [
  ["COc1cc2c(cc1OC)C(=O)OC2", 0.984],
  ["CC(=O)NC1SCCC1=O (configuration not stated)", 1],
  ["C=C1C([C@]2(C)C(CC(=O)OC)[C@@](C)(COC(C)=O)OC(=O)C[C@@H]2OC(C)=O)[C@@H](OC=O)[C@H](OC(=O)C(O)C(C)CC)[C@@]2(C)[C@H](c3ccoc3)CC(=O)C12O (some centres not stated)", 1.02],
  ["COP(=O)(OC)OC=C(Cl)Cl", 0.986],
  ["CC(=O)OCC(=O)[C@H]1CCC2C3CCC4=CC(=O)CC[C@]4(C)C3CC[C@@]21C (some centres not stated)", 0.961],
  ["CC(=O)OCC(=O)[C@@]1(O)CCC2C3CCC4=CC(=O)CC[C@]4(C)C3C(=O)C[C@@]21C (some centres not stated)", 1.03],
  ["ClC1=C(Cl)C2(Cl)C3C(Cl)C=CC3C1(Cl)C2(Cl)Cl (configuration not stated)", 0.988],
  ["CN1CCC(=C2c3ccccc3CC(=O)c3sccc32)CC1", 1.01],
  ["OCC(O)C(O)C(O)CO (configuration not stated)", 1.01],
  ["CCC(C)C(=O)O[C@H]1[C@H](O)C2C(CN3CC(C)CCC3[C@@]2(C)O)C2C[C@]34O[C@]5(O)C(OC(=O)C(C)(O)C(C)O)CC[C@@]3(C)C5C(OC(C)=O)[C@@H](OC(C)=O)C4[C@@]21O (some centres not stated)", 1],
  ["CN1CCCN=C1COC(=O)C(O)(c1ccccc1)C1CCCCC1 (configuration not stated)", 0.987],
  ["CN1CCC(=C2c3ccccc3Sc3ccccc32)CC1", 1.01],
  ["OCCN1C[C@@H](O)[C@@H](O)C(O)C1CO (some centres not stated)", 1.01],
  ["C[C@H]1OC(n2cc(F)c(=O)[nH]c2=O)C(O)[C@@H]1O (some centres not stated)", 0.979],
  ["CCOC(=O)C(=O)C1(C(=O)OCC)Oc2cc(OC)cc(OC)c2C(=O)C1c1ccccc1 (configuration not stated)", 0.938],
  ["Cc1cccc(C)c1OCC(C)N (configuration not stated)", 0.977],
  ["CCN(CC)CCNC(=O)c1cc(Br)c(N)cc1OC", 0.974],
  ["N=c1ccn2c(n1)O[C@@H]1C2O[C@H](CO)[C@H]1O (some centres not stated)", 1.01],
  ["CS(=O)(=O)c1ccc(C2=C(c3ccccc3)C(=O)OC2)cc1", 0.996],
  ["CC1/C(=N\\O)C[C@@H]2C[C@H]1C2(C)C (some centres not stated)", 1.02],
  ["CC(CCc1ccccc1)NC(C)C(O)c1ccc(O)cc1 (configuration not stated)", 0.993],
  ["COCCc1ccc(OCC(O)CNC(C)C)cc1 (configuration not stated)", 1.01]
]}

###

method-description: chemical genetic growth profiling, strain panel (AID 1159580);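 also: tested at 20 µM; growth read once vehicle control cultures reached saturation at 30 °C; 1 = growth at the plate median or of vehicle wells; lower values mean less growth of the strain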
test-parameters: S. cerevisiae deletion strains, growth OD, locus YJL166W, strain qcr8
About 2,000 (36%) of roughly 5,500 compounds were called active. Roughly 18% stayed inconclusive and do not appear here. Cut-off read from the data, not from the text of the source: active = normalized growth mostly below about 0.91 (no sharp cut-off); inconclusive = no clear call, values can overlap the other calls; inactive = mostly above about 0.92. The list shows a part of the results.
Outcome codes: 1.0 = active, 0.0 = inactive

{"columns": ["molecule", "category-label"],
 "data": [
  ["NCCSSCCN", 0.0],
  ["CC1=C(/C=C/C(C)=C/C=C/C(C)=C/C=C/C=C(C)/C=C/C=C(C)/C=C/C2=C(C)C(=O)C(O)CC2(C)C)C(C)(C)CC(O)C1=O (stereo not drawn)", 0.0],
  ["CN(C)c1ccc(C(=C2C=CC(=[N+](C)C)C=C2)c2ccc(N(C)C)cc2)cc1", 1.0],
  ["O=C1C=CC(=C(c2ccc(O)cc2)c2ccc(O)cc2)C=C1", 0.0],
  ["CC(=O)NC1SCCC1=O (stereo not drawn)", 0.0],
  ["COc1ccc2c(c1)OCc1c-2oc2cc(OC)ccc12", 1.0],
  ["CN(C)C(=S)SSC(=S)N(C)C", 1.0],
  ["C=Cc1c2[nH]c(c1C)C=c1[nH]c(c(C)c1C=C)=CC1N=C(C=c3[nH]c(c(C)c3CCC(=O)O)=C2)C(CCC(=O)O)=C1C (stereo not drawn)", 0.0]
]}
